Please provide measured growth for the entries that follow.
# Test system: 786-0 renal
# protocol_notes: NCI-60 one-dose screen, 48 h (100 = growth as untreated, 0 = no growth, -100 = all killed)
# protocol_conditions: 10 µM unless noted
This is part of a sample that, as a whole, favours compounds with a hit. Of some 83,000 tested, about 20% had one in any assay.
Give bare numbers, in %.

# example entries with known answers
# input Supply reported growth belonging to this molecule: COc1cc(/C=C/C(=O)c2ccc(N3CCN(C)CC3)cc2)ccc1F
# output 88.4

# input Report measured growth; entry is O=C(O)c1ccc(-n2cc(CNc3ccc(F)cc3)c(-c3ccc(C(F)(F)F)cc3)n2)cc1
# output 105

# input Look up and report measured growth for this entry: CC1CCN(S(=O)(=O)c2ncsc2-c2ccccc2)CC1
# output 30.8

Attention now shifts to the item below.
# input Given the molecule CCNC(=O)Oc1ccc(/C(=C(/C)c2ccc(Cl)cc2)c2ccc(OCCN3CCCC3)cc2)cc1 , write its reported growth.
# output 71.4
